# MEASUREMENT PROTOCOL: Apparent permeability of the compound from apical to basolateral side in human Caco2 cells at pH 6.5/7.4 by LC-MS/MS analysis
# Type: ADME, cell-based
# EXPERIMENTAL CONDITIONS: Caco-2, pH 6.5
ENDPOINT: Papp A→B (×10⁻⁶ cm/s)

MOLECULE: CCCCOC(=O)c1cn(C2CC2)c2cc(N3CCNCC3)c(F)cc2c1=O
ENDPOINT: Papp A→B
REPORTED MEASUREMENT: 4.95
//
MOLECULE: COC(=O)c1cn(C2CC2)c2cc(N3CCNCC3)c(F)cc2c1=O
ENDPOINT: Papp A→B
REPORTED MEASUREMENT: 1.01
//
MOLECULE: CCCOC(=O)c1cn(C2CC2)c2cc(N3CCNCC3)c(F)cc2c1=O
ENDPOINT: Papp A→B
REPORTED MEASUREMENT: 0.43
//
MOLECULE: CC(C)OC(=O)c1cn(C2CC2)c2cc(N3CCNCC3)c(F)cc2c1=O
ENDPOINT: Papp A→B
REPORTED MEASUREMENT: 4.69
//
MOLECULE: CCCCCCOC(=O)c1cn(C2CC2)c2cc(N3CCNCC3)c(F)cc2c1=O
ENDPOINT: Papp A→B
REPORTED MEASUREMENT: 13.9
//
MOLECULE: O=C(OCc1ccccc1)c1cn(C2CC2)c2cc(N3CCNCC3)c(F)cc2c1=O
ENDPOINT: Papp A→B
REPORTED MEASUREMENT: 6.42
//
MOLECULE: CCOC(=O)c1cn(C2CC2)c2cc(N3CCNCC3)c(F)cc2c1=O [CIPROFLOXACIN ETHYL ESTER]
ENDPOINT: Papp A→B
REPORTED MEASUREMENT: 3.45

----------
# MEASUREMENT PROTOCOL: Apparent permeability of the compound from basolateral to apical side in human Caco2 cells by LC-MS/MS analysis
# Type: ADME, cell-based
# EXPERIMENTAL CONDITIONS: Caco-2
Quick reference: Papp B→A of the listed items.
ENDPOINT: Papp B→A (×10⁻⁶ cm/s)

SMI: CCCCCCOC(=O)c1cn(C2CC2)c2cc(N3CCNCC3)c(F)cc2c1=O
REPORTED MEASUREMENT: 264

SMI: CCCOC(=O)c1cn(C2CC2)c2cc(N3CCNCC3)c(F)cc2c1=O
REPORTED MEASUREMENT: 62.8

SMI: CC(C)OC(=O)c1cn(C2CC2)c2cc(N3CCNCC3)c(F)cc2c1=O
REPORTED MEASUREMENT: 35.2
